assay: in vivo; conditions: BALB/c nude, mouse, in vivo, iv, total radioactivity, uptake Pancreas
value_kind: tissue uptake at 24 h
Give your result as the value with the unit written after it.

Exam item: Report tissue uptake at 24 h for C[C@@H](O)[C@H](NC(=O)[C@@H]1CSSC[C@H](NC(=O)[C@@H](Cc2ccccc2)NC(=O)[C@H](CCCCNC(=O)c2cccc(NC(=O)N[C@@H]3CN(C4CCCCC4)c4ccccc4N(CC(=O)C(C)(C)C)C3=O)c2)NC(=O)COCCOCCNC(=O)CN2CCN(CC(=O)O)CCN(CC(=O)O)CCN(CC(=O)O)CC2)C(=O)N[C@@H](Cc2ccc(O)cc2)C(=O)N[C@H](Cc2c[nH]c3ccccc23)C(=O)N[C@@H](CCCCN)C(=O)N[C@@H]([C@@H](C)O)C(=O)N1)C(=O)O [Compound I-35, DOTA-OEG-K(Z360)-f[CYwKTC]T-OH] please.
Marked response: 0.96 %ID/g

Exam item: Report tissue uptake at 24 h for C[C@@H](O)[C@H](NC(=O)[C@@H]1CSSC[C@H](NC(=O)[C@@H](Cc2ccccc2)NC(=O)COCCOCCNC(=O)[C@H](CCCCNC(=O)[C@H](CCC(=O)O)NC(=O)c2cccc(NC(=O)N[C@@H]3CN(C4CCCCC4)c4ccccc4N(CC(=O)C(C)(C)C)C3=O)c2)NC(=O)CN2CCN(CC(=O)O)CCN(CC(=O)O)CCN(CC(=O)O)CC2)C(=O)N[C@@H](Cc2ccc(O)cc2)C(=O)N[C@H](Cc2c[nH]c3ccccc23)C(=O)N[C@@H](CCCCN)C(=O)N[C@@H]([C@@H](C)O)C(=O)N1)C(=O)O [Compound I-27, DOTA-K(-E-Z360)-OEG-f[CYwKTC]T-OH] please.
Marked response: 1.79 %ID/g

Exam item: Report tissue uptake at 24 h for C[C@@H](O)[C@H](NC(=O)[C@@H]1CSSC[C@H](NC(=O)[C@@H](Cc2ccccc2)NC(=O)CNC(=O)COCCOCCNC(=O)[C@H](CCCCNC(=O)c2cccc(NC(=O)N[C@@H]3CN(C4CCCCC4)c4ccccc4N(CC(=O)C(C)(C)C)C3=O)c2)NC(=O)CN2CCN(CC(=O)O)CCN(CC(=O)O)CCN(CC(=O)O)CC2)C(=O)N[C@@H](Cc2ccc(O)cc2)C(=O)N[C@H](Cc2c[nH]c3ccccc23)C(=O)N[C@@H](CCCCN)C(=O)N[C@@H]([C@@H](C)O)C(=O)N1)C(=O)O [Compound I-53, DOTA-K(Z360)-OEG-G-f[CYwKTC]T-OH] please.
Marked response: 0.91 %ID/g

Exam item: Report tissue uptake at 24 h for C[C@@H](O)[C@H](NC(=O)[C@@H]1CSSC[C@H](NC(=O)[C@@H](Cc2ccccc2)NC(=O)[C@H](CCCCNC(=O)c2cccc(NC(=O)N[C@@H]3CN(C4CCCCC4)c4ccccc4N(CC(=O)C(C)(C)C)C3=O)c2)NC(=O)COCCOCCNC(=O)COCCOCCNC(=O)CN2CCN(CC(=O)O)CCN(CC(=O)O)CCN(CC(=O)O)CC2)C(=O)N[C@@H](Cc2ccc(O)cc2)C(=O)N[C@H](Cc2c[nH]c3ccccc23)C(=O)N[C@@H](CCCCN)C(=O)N[C@@H]([C@@H](C)O)C(=O)N1)C(=O)O [Compound I-41, DOTA-OEG-OEG-K(Z360)-f[CYwKTC]T-OH] please.
Marked response: 0.7 %ID/g
